# TEST_TARGET: IDH1 wt/IDH1 R132H heterodimer (Homo sapiens (Human), UniProt O75874, R132H)
# Sequence (O75874 whole entry R132H): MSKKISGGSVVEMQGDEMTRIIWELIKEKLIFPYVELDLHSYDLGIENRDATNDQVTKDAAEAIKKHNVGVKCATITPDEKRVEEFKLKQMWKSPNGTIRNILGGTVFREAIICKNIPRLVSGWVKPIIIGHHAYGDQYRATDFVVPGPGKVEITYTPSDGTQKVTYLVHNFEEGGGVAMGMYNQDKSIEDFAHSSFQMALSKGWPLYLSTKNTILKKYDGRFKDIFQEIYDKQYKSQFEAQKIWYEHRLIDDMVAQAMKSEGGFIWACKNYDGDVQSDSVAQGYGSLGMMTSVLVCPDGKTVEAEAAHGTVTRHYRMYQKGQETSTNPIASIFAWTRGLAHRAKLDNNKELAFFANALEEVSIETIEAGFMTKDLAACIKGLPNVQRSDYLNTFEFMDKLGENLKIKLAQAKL
# Sequence (O75874 whole entry, stated change not applied): as the sequence (O75874 whole entry R132H) above, with H132R counted along it
# TEST_DESCRIPTION: In vitro assay for IDH1m R132H inhibitors, IDH1 wt/IDH1 R132H heterodimer, NADPH depletion (diaphorase/resazurin)
# Assay type: biochemical
# REPORTED_CONDITIONS: IDH1 wt/R132H heterodimer, NADPH/NADP, not saturated; read-out: IDH1 wt/R132H NADPH/NADP IC50 not saturated
pIC50: −log10 of the molar value.
PROPERTY_NAME: pIC50

Report pIC50 for CC(C)(O)CNc1nc(Nc2ccnc(C3(C#N)CC3)c2)nc(-c2cccc(C(F)(F)F)n2)n1 please.
6.00 to 7.00

Query (compound): Cc1cnn(-c2nc(N[C@H](C)C3CC3)nc(N[C@H](C)C3CC3)n2)c1 ; field requested: pIC50
< 6.00

Find the recorded pIC50 belonging to FC1(F)CC(Nc2nc(Nc3ccnc(C(F)(F)F)c3)nc(-c3cccc(C(F)(F)F)n3)n2)C1 and report it.
> 7.30

Recorded pIC50 of N#Cc1cc(Nc2nc(NC3CC(F)(F)C3)nc(-n3ccc(C(F)(F)F)n3)n2)ccn1 , please.
> 7.30
